- Species on record: Bos taurus
- assay text: Induction of calf brain microtubule assembly assessed as concentration of unassembled tubulin at 25 uM incubated for 45 mins by spectrophotometric method (reference value: >20 uM)
Property: Unassembled tubulin concentration; scope: individual compounds
quantity: Unassembled tubulin concentration (µM)

structure_as_smiles=CC(=O)O[C@@]12CO[C@@H]1CCOC/C=C/CO/C1=C(\C)[C@@H]2[C@H](OC(=O)c2cccc(N=[N+]=[N-])c2)[C@]2(O)C[C@H](OC(=O)[C@H](O)[C@@H](NC(=O)c3ccccc3)c3ccccc3)C(C)=C(C1=O)C2(C)C reading=2.34
structure_as_smiles=CC(=O)O[C@@]1([C@@H]2/C(C)=C(/O)C(=O)C3=C(C)[C@@H](OC(=O)[C@H](O)[C@@H](NC(=O)c4ccccc4)c4ccccc4)C[C@@](O)([C@H]2OC(=O)c2cccc(N=[N+]=[N-])c2)C3(C)C)CO[C@@H]1CCO reading=3.82
structure_as_smiles=CC(=O)O[C@@]1([C@@H]2/C(C)=C(/O)C(=O)C3=C(C)[C@@H](OC(=O)[C@H](O)[C@H](CC(C)C)NC(=O)OC(C)(C)C)C[C@@](O)([C@H]2OC(=O)c2cccc(N=[N+]=[N-])c2)C3(C)C)CO[C@@H]1CCO reading=3.63
structure_as_smiles=CC(=O)O[C@H]1C(=O)[C@@]2(C)[C@H]([C@H](OC(=O)c3ccccc3)[C@]3(O)C[C@H](OC(=O)[C@H](O)[C@@H](NC(=O)c4ccccc4)c4ccccc4)C(C)=C1C3(C)C)[C@]1(OC(C)=O)CO[C@@H]1C[C@@H]2O reading=5.36
structure_as_smiles=CC(=O)O[C@@]1([C@@H]2/C(C)=C(/O)C(=O)C3=C(C)[C@@H](OC(=O)[C@H](O)[C@H](CC(C)C)NC(=O)OC(C)(C)C)C[C@@](O)([C@H]2OC(=O)c2ccccc2)C3(C)C)CO[C@@H]1CCO reading=3.2
structure_as_smiles=COc1cccc(C(=O)O[C@H]2[C@H]([C@]3(OC(C)=O)CO[C@@H]3CCO)/C(C)=C(/O)C(=O)C3=C(C)[C@@H](OC(=O)[C@H](O)[C@H](CC(C)C)NC(=O)OC(C)(C)C)C[C@]2(O)C3(C)C)c1 reading=16.6

====

- Tested on: A2780
- assay text: Cytotoxicity against human A2780 cells assessed as decrease in cell viability after 48 hrs by MTT assay
- Type: functional, cell-based
- measurement conditions: A2780, 48 h
Property: IC50; scope: individual compounds
quantity: IC50 (nM)

structure_as_smiles=CC(=O)O[C@@]12CO[C@@H]1CCOC/C=C/CO/C1=C(\C)[C@@H]2[C@H](OC(=O)c2ccccc2)[C@]2(O)C[C@H](OC(=O)[C@H](O)[C@@H](NC(=O)c3ccccc3)c3ccccc3)C(C)=C(C1=O)C2(C)C reading=22.3
structure_as_smiles=CC(=O)O[C@@]1([C@@H]2/C(C)=C(/O)C(=O)C3=C(C)[C@@H](OC(=O)[C@H](O)[C@H](CC(C)C)NC(=O)OC(C)(C)C)C[C@@](O)([C@H]2OC(=O)c2cccc(N=[N+]=[N-])c2)C3(C)C)CO[C@@H]1CCO reading=4.1
structure_as_smiles=CC(=O)O[C@@]12CO[C@@H]1CCOC/C=C/CO/C1=C(\C)[C@@H]2[C@H](OC(=O)c2cccc(N=[N+]=[N-])c2)[C@]2(O)C[C@H](OC(=O)[C@H](O)[C@@H](NC(=O)c3ccccc3)c3ccccc3)C(C)=C(C1=O)C2(C)C reading=2.8
structure_as_smiles=CC(=O)O[C@@]12CO[C@@H]1CCOC/C=C\CCO/C1=C(\C)[C@@H]2[C@H](OC(=O)c2ccccc2)[C@]2(O)C[C@H](OC(=O)[C@H](O)[C@@H](NC(=O)c3ccccc3)c3ccccc3)C(C)=C(C1=O)C2(C)C reading=25.1

====

- System: A2780
- assay text: Cytotoxicity against human A2780 cells assessed as decrease in cell viability after 48 hrs by MTT assay
- Format: functional, cell-based
- measurement conditions: A2780, 48 h
quantity: IC50 (nM)

structure_as_smiles=CC(=O)O[C@@]1([C@@H]2/C(C)=C(/O)C(=O)C3=C(C)[C@@H](OC(=O)[C@H](O)[C@@H](NC(=O)c4ccccc4)c4ccccc4)C[C@@](O)([C@H]2OC(=O)c2ccccc2)C3(C)C)CO[C@@H]1CCO result_units=nM reading=282
structure_as_smiles=COc1cccc(C(=O)O[C@H]2[C@H]([C@]3(OC(C)=O)CO[C@@H]3CCO)/C(C)=C(/O)C(=O)C3=C(C)[C@@H](OC(=O)[C@H](O)[C@H](CC(C)C)NC(=O)OC(C)(C)C)C[C@]2(O)C3(C)C)c1 result_units=nM reading=5.1
structure_as_smiles=CC(=O)O[C@@]1([C@@H]2/C(C)=C(/O)C(=O)C3=C(C)[C@@H](OC(=O)[C@H](O)[C@H](CC(C)C)NC(=O)OC(C)(C)C)C[C@@](O)([C@H]2OC(=O)c2ccccc2)C3(C)C)CO[C@@H]1CCO result_units=nM reading=4.3
structure_as_smiles=CC(=O)O[C@@]1([C@@H]2/C(C)=C(/O)C(=O)C3=C(C)[C@@H](OC(=O)[C@H](O)[C@@H](NC(=O)c4ccccc4)c4ccccc4)C[C@@](O)([C@H]2OC(=O)c2cccc(N=[N+]=[N-])c2)C3(C)C)CO[C@@H]1CCO result_units=nM reading=1.6
structure_as_smiles=CC(=O)O[C@@]12CO[C@@H]1CCOCCCCCO/C1=C(\C)[C@@H]2[C@H](OC(=O)c2ccccc2)[C@]2(O)C[C@H](OC(=O)[C@H](O)[C@@H](NC(=O)c3ccccc3)c3ccccc3)C(C)=C(C1=O)C2(C)C result_units=nM reading=25.4

Reference source for all entries: ChEMBL document CHEMBL4138120
